normalized growth values, listed per item
Assay: chemical genetic growth profiling, strain panel (AID 1159580);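 note: tested at 20 µM; growth read once vehicle control cultures reached saturation at 30 °C; 1 = growth at the plate median or of vehicle wells; lower values mean less growth of the strain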
Details: S. cerevisiae deletion strains, growth OD, locus YHR142W, strain chs7, hits give low values
Out of some 5,500 compounds screened, about 2,000 (36%) were called active. Another 18% or so got no clear call; they are omitted. The list shows a part of the results.

Some solved entries appear below for comparison.
Molecule: CC(C)CCCC(C)[C@H]1CCC2C3CC=C4CC(=O)CC[C@]4(C)C3CC[C@@]21C (stereo not given in full)
Observation Type: normalized growth
Result: 0.903 (inactive)
--
Molecule: CC(C)CCCC(C)C1CCC2C3C[C@@H](O)[C@@]4(O)C[C@@H](O)CC[C@]4(C)C3CC[C@]12C (stereo not given in full)
Observation Type: normalized growth
Result: 1.02 (inactive)
--
Molecule: CC(C)CCCC(C)[C@H]1CCC2C3CC=C4C[C@@H](O)CC[C@]4(C)C3CC[C@@]21C (stereo not given in full)
Observation Type: normalized growth
Result: 0.956 (inactive)
--
Molecule: CN(C)CCCN1c2ccccc2CCc2ccccc21
Observation Type: normalized growth
Result: 1.02 (inactive)
--
Molecule: CN(C)CCCN1c2ccccc2Sc2ccc(C(F)(F)F)cc21
Observation Type: normalized growth
Result: 0.958 (inactive)

Query block: # return recorded normalized growth for input CC(C)CCCC(C)C1CCC2C3CC(=O)[C@H]4C[C@@H](O)CC[C@]4(C)C3CC[C@]12C (stereo not given in full)
Result block: 1.04 (inactive)

Query block: Please give measured normalized growth of the following entry: CCCSc1ccc2nc(NC(=O)OC)[nH]c2c1
Result block: 1.01 (inactive)

Query block: Give the value of normalized growth reported for the following: CNCCCC12CCC(c3ccccc31)c1ccccc12
Result block: 0.91 (inactive)

Query block: Could you please provide reported normalized growth for COc1ccc(C2Sc3ccccc3N(CCN(C)C)C(=O)C2OC(C)=O)cc1 (stereo not given) ? Thanks!
Result block: 0.972 (inactive)

Query block: Give a short answer stating reported normalized growth for CN(C)CCCN1c2ccccc2Sc2ccc(Cl)cc21 .
Result block: 0.116 (active)

----------
Experiment: chemical genetic growth profiling, strain panel (AID 1159580)
Conditions: S. cerevisiae deletion strains, growth OD, locus YKR001C, strain vps1, hits give low values
Hit rate of the full screen: of about 5,500 compounds, about 2,000 (36%) were called active. Roughly 18% stayed inconclusive and do not appear here. The list shows a part of the results.
Observation Type: normalized growth

Consider the following illustrative entries.
Molecule: C=C1c2c(Cl)ccc(O)c2C(O)=C2C(=O)[C@]3(O)C(O)=C(C(N)=O)C(=O)[C@@H](N(C)C)[C@@H]3[C@@H](O)[C@H]12
normalized growth: 0.917 (inactive)

Molecule: C[C@H](CCC(=O)O)[C@H]1CCC2C3C(=O)CC4CC(=O)CC[C@]4(C)C3CC(=O)[C@@]21C (stereo partly specified)
normalized growth: 1.01 (inactive)

Molecule: CCC(C)[C@H]1O[C@]2(C=C[C@@H]1C)C[C@@H]1C[C@@H](C/C=C(\C)[C@@H](OC3C[C@H](OC)C(O[C@H]4C[C@H](OC)[C@@H](O)[C@H](C)O4)[C@H](C)O3)[C@@H](C)/C=C/C=C3\CO[C@@H]4[C@H](O)C(C)=C[C@@H](C(=O)O1)[C@]34O)O2 (stereo partly specified)
normalized growth: 0.253 (active)

Molecule: C=C1c2cccc(O)c2C(O)=C2C(=O)[C@]3(O)C(O)=C(C(N)=O)C(=O)[C@@H](N(C)C)[C@@H]3[C@@H](O)[C@H]12
normalized growth: 0.961 (inactive)

Molecule: OC[C@H]1O[C@@](CO)(O[C@@H]2O[C@H](CO)[C@@H](O)[C@H](O)[C@H]2O)[C@@H](O[C@@H]2O[C@H](CO)[C@@H](O)[C@H](O)[C@H]2O)[C@@H]1O
normalized growth: 1.11 [resistant] (active)

Query block: Determine from records and report normalized growth for CN(C)C(=O)Oc1cccc([N+](C)(C)C)c1
Result block: 0.983 (inactive)

Query block: Output measured normalized growth for this item: CCN(CC)CCOC(=O)C1(C2CCCCC2)CCCCC1
Result block: 1 (inactive)

Query block: // fetch normalized growth given entry CS(=O)(=O)c1ccc([C@@H](O)[C@@H](CO)NC(=O)C(Cl)Cl)cc1
Result block: 0.99 (inactive)

Query block: Output normalized growth of C[n+]1ccccc1/C=N/O
Result block: 0.989 (inactive)

Query block: Write down normalized growth measured for item COC(=O)c1c(OC)cc2c(c1C)Oc1c(Cl)c(O)c(Cl)c(C)c1C(=O)O2
Result block: 0.949 (inactive)

Query block: Please supply the value of reported normalized growth for the item O=C(O)C1=CCCNC1
Result block: 0.999 (inactive)

Query block: Recall and state the measured normalized growth for CCN(CC)CCOC(=O)C(c1ccccc1)C1CCCCC1 (stereo unspecified) .
Result block: 0.999 (inactive)

Query block: Specify reported normalized growth for the molecule shown: CN(C)c1ccc(O)c2c1C[C@H]1C[C@H]3[C@H](N(C)C)C(=O)C(C(N)=O)=C(O)[C@@]3(O)C(=O)C1=C2O
Result block: 0.966 (inactive)

----------
Assay: chemical genetic growth profiling, strain panel (AID 1159580)
Settings: S. cerevisiae deletion strains, growth OD, locus YGR135W, strain pre9, hits give low values
Hit rate of the full screen: of about 5,500 compounds, about 2,000 (36%) were called active. Not shown: some 18% with an inconclusive outcome. The list shows a part of the results.
Observation Type: normalized growth

Answered examples (4):
Molecule: COC(=O)c1c(C)c2c(c(C)c1OC)OC(=O)c1c(C)c(Cl)c(OC)c(Cl)c1O2
normalized growth: 1.03 (inactive)
//
Molecule: CC(=O)Oc1ccc(O)cc1
normalized growth: 0.99 (inactive)
//
Molecule: CC(CCC(=O)O)[C@H]1CCC2C3CC[C@@H]4CC(=O)CC[C@]4(C)C3C=C[C@@]21C (stereo not given in full)
normalized growth: 0.953 (inactive)
//
Molecule: CC(=O)Oc1ccc(C(c2ccc(OC(C)=O)cc2)c2ccccn2)cc1
normalized growth: 0.996 (inactive)

Query block: Identify normalized growth associated with the molecule COc1c(C)c2c(c(C)c1Cl)Oc1c(Cl)c(OC)c(Cl)c(C)c1C(=O)O2
Result block: 1 (inactive)

----------
Experiment: chemical genetic growth profiling, strain panel (AID 1159580);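 note: tested at 20 µM; growth read once vehicle control cultures reached saturation at 30 °C; 1 = growth at the plate median or of vehicle wells; lower values mean less growth of the strain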
Conditions: S. cerevisiae deletion strains, growth OD, locus YHR030C, strain SLT2
In all, about 5,500 compounds went through this assay and about 2,000 (36%) were called active. About 18% were inconclusive and are not listed. No stated cut-off is given here; in the data, active means normalized growth mostly below about 0.91 (no sharp cut-off); inconclusive means no clear call, values can overlap the other calls; inactive means mostly above about 0.92. Some of the results follow.
Thanks in advance; please answer with one of these: Y = active, N = inactive

Molecule: CSc1n[nH]c(-c2cc(C(C)(C)C)oc2C)c1C#N
Class: Y
--
Molecule: C=C(C)C1(O)OC(=O)C=C1OC (stereo not given)
Class: N

Query block: What classification did CN(C)C1C(=O)C(C(N)=O)=C(O)C2(O)C(=O)C3=C(O)c4c(O)ccc(Cl)c4C(C)(O)C3CC12 (stereo not given) end up with in this test?
Result block: N

Query block: So what was the verdict on COC(=O)[C@H](Cc1ccccc1)NC(=O)/C(=C1\OC(=O)C(c2ccccc2)=C1O)c1ccccc1 in this test?
Result block: N

Query block: Hi, do you know how CSc1ncc(C#N)c2nc(-c3ccc(N(C)C)cc3)nn12 came out in this test?
Result block: N

----------
Test: chemical genetic growth profiling, strain panel (AID 1159580);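 note: tested at 20 µM; growth read once vehicle control cultures reached saturation at 30 °C; 1 = growth at the plate median or of vehicle wells; lower values mean less growth of the strain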
Settings: S. cerevisiae deletion strains, growth OD, locus YMR205C, strain PFK2, hits give low values
About 2,000 (36%) of roughly 5,500 compounds were called active. Another 18% or so got no clear call; they are omitted. The list shows a part of the results.
Observation Type: normalized growth
Write the number on its own, no unit after it.

Query block: Tell me measured normalized growth for COc1ccc2cc(CCC(C)=O)ccc2c1 please.
Result block: 1.01

----------
Experiment: chemical genetic growth profiling, strain panel (AID 1159580);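 note: tested at 20 µM; growth read once vehicle control cultures reached saturation at 30 °C; 1 = growth at the plate median or of vehicle wells; lower values mean less growth of the strain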
Details: S. cerevisiae deletion strains, growth OD, locus YHR094C, strain hxt1, hits give low values
The whole screen tested about 5,500 compounds, of which about 2,000 (36%) were called active. Inconclusive results (about 18%) are left out. This is one part of the list.
// reported normalized growth for each item listed
Lab note: write the figure by itself, no unit.

Molecule: CN(C)CCCN1c2ccccc2CCc2ccc(Cl)cc21
normalized growth: 0.993

Query block: Give recorded normalized growth. COc1ccc(C2Sc3ccccc3N(CCN(C)C)C(=O)C2OC(C)=O)cc1 (stereo unspecified)
Result block: 1.03

Query block: Look up normalized growth of CC(C)=CCc1c2c(c3occ(-c4ccc(O)cc4)c(=O)c3c1O)C=CC(C)(C)O2 and report it.
Result block: 1.01

Query block: Return the recorded normalized growth value; entry: O=P1(N(CCCl)CCCl)NCCCO1 (stereo unspecified)
Result block: 1.03

Query block: Identify the reported normalized growth for the following entry. O=C(O)C1=CCCNC1
Result block: 0.981

Query block: Output normalized growth of CN(C)CCCN1c2ccccc2Sc2ccccc21
Result block: 1.01

Query block: Identify measured normalized growth corresponding to COc1ccccc1OCC(O)CO (stereo unspecified)
Result block: 0.978

Query block: // Input: CC(C)=CCc1c2c(c3occ(-c4ccc(O)c(O)c4)c(=O)c3c1O)C=CC(C)(C)O2 . Output its normalized growth only.
Result block: 0.888

Query block: Give normalized growth for C=C(C)C1(O)OC(=O)C=C1OC (stereo unspecified)
Result block: 0.983

Query block: Hello, please tell me recorded normalized growth for this one: CC(CCC(=O)O)[C@H]1CCC2C3CC[C@@H]4CC(=O)CC[C@]4(C)C3C=C[C@@]21C (stereo partly specified)
Result block: 1.03

Query block: Consider the molecule CC(=O)OCC(=O)[C@@]1(O)[C@H](C)CC2C3CCC4=CC(=O)C=C[C@]4(C)[C@@]3(F)[C@@H](O)C[C@@]21C (stereo partly specified) . State its measured normalized growth.
Result block: 0.995
